target: Voltage-gated inwardly rectifying potassium channel KCNH2 (Homo sapiens, UniProt Q12809)
Sequence (Q12809 whole entry): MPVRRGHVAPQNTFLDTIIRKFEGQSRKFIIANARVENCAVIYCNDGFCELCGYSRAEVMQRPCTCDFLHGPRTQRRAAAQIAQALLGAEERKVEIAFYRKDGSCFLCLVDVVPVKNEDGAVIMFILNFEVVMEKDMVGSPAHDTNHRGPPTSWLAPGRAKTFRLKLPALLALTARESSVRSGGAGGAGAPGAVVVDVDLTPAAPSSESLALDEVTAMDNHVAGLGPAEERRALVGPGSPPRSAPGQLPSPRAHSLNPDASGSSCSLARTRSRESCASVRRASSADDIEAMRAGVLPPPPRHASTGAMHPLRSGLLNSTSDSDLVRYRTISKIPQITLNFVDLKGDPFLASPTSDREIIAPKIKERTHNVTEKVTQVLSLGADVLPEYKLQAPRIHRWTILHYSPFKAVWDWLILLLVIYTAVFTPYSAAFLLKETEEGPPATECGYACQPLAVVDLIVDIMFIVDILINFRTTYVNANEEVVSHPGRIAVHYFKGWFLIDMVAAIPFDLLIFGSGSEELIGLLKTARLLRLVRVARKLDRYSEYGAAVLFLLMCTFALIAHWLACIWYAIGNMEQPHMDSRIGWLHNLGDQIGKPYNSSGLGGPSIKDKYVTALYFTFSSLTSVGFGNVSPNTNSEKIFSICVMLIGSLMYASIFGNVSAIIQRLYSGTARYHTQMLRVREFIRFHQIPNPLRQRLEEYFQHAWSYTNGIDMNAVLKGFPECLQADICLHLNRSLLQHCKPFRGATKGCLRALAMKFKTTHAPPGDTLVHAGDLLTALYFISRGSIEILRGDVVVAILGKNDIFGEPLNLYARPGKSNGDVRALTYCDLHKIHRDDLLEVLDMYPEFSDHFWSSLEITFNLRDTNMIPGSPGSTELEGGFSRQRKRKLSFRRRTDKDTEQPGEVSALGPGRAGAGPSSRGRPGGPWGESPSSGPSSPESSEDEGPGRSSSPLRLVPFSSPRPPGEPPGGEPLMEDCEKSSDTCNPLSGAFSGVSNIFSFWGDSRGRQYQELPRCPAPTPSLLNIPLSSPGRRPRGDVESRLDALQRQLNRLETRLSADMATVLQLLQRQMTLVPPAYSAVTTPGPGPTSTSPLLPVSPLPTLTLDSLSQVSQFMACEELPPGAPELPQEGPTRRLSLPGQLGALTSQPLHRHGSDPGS
Note to self: IC50 under 10 µM means Met, ties and anything higher get Not met.

Problem: Below 10 µM on IC50? Entry CN1CC(=O)N2[C@H](c3ccc4c(c3)OCO4)c3[nH]c4ccccc4c3C[C@@H]2C1=O
Result: Not met

Problem: Below 10 µM on IC50? Entry Cc1cc2c(s1)Nc1ccccc1N=C2N1CCN(C)CC1
Result: Met

Problem: Below 10 µM on IC50? Entry COC(=O)[C@@H]1[C@H]2CC[C@@H](C[C@@H]1O)N2C
Result: Not met

Problem: Below 10 µM on IC50? Entry CCNCCc1cccc(C(F)(F)F)c1
Result: Not met

Problem: Below 10 µM on IC50? Entry COc1cc(N)c(Cl)cc1C(=O)NC1CCN(Cc2ccccc2)CC1 [CLEBOPRIDE]
Result: Met
